Hey, just so you know, these numbers are from the supplement of paper PMC10724198.

# Test system: Saccharomyces cerevisiae;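 further: PSI is a weighted mean of sequencing reads over stability bins, variants kept only with over 10 reads, mCherry proximal and sfGFP distal, peptide attached via GGGS linker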
# RUN_DESCRIPTION: protein stability index of tFT-peptide fusion (C-terminal peptide) (PSI (0-1 scale)); higher = more stable (slower turnover)
# TEST_SETTINGS: genetic background: das1 deletion; temperature: 30 C
REPORTED_PROPERTY: protein stability index

YSVERCLFVSVA; 0.352
FFYVFPFFIFRF; 0.364
GPPPAPSPTPSP; 0.676
GVLHSKGPWFSG; 0.652
RSKWEKLDKIVS; 0.629
SQKKKIKKYKET; 0.644
SVFFRPVLICCA; 0.0774
LPSPPSSPPLRP; 0.597
VVRMRPRLFSLY; 0.687
LFSSFFVFRLLV; 0.455
LGRYHPWLLFLC; 0.457
LLRLPLLALLFV; 0.233
